- system-under-test: T1, mouse CD20 (mouse, UniProt P19437)
- T1 sequence: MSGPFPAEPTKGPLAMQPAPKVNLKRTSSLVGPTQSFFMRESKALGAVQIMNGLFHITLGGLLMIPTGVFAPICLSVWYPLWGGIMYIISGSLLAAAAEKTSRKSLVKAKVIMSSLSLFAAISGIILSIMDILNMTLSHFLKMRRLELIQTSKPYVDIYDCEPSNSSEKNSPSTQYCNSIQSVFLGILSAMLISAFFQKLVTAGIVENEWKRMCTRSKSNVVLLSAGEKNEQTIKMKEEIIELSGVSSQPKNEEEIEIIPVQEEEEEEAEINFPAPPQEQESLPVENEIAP
- test-method-notes: flow cytometry, spleen CD19+ B cells, 0.5 µg/mL antibody
Overview of recorded B cell reactivity (mean linear fluorescence intensity) for various binders
Give the figure by itself; no unit, no explanation.

Check out these entries, answers already filled in.
binder	recorded-number
MB20-13 monoclonal antibody (antibody, V domains shown) VH: EVQLQESGGGLVQPGGSLKLSCAASGFTFSDYGMAWVRQAPRKGPEWVAFISNLAYSIYYADTVTGRFTISRENAKNTLYLEMSSLRSEDTAMYFCTRTGYYALDYWGQGTSVTVSS VL: EIVLAQSPTTTAASPGEKITITCSASSSITSNYLHWYQQKPGFSPKLLIYRTSNLASGVPARFSGSGSGTSYSLTIGTMEAEDVATYYCQQGSSKTLTFGAGTKLELKR	603
MB20-8 monoclonal antibody (antibody, V domains shown) VH: EVQLQESGPDLVKPGASVKISCKASGYTFTDYYMKWVKQSHGKSLDWIGDINPNNGDIIYNQKFEGKATLTVDKSSSTAYMELRSLTSEDSAVYYCARERFAYWGQGTLVTVSA VL: EIVLTQSPTTMAASPGEKITITCSVSSNIRSNYLHWYQQKPGFSPKLLIYRTSNLASGVPARFSGSGSGTSYSLTIGTMKAEDVATYYCQQGSSIPLTFGAGTKLELKR	240
MB20-2 monoclonal antibody (antibody, V domains shown) VH: EVQLQESGPELVKPGASVKISCKASGYMFTDYYIKWVKQSHGKSLEWIGDINPNNGDTIYNQKFKGKATLTVDKSSNTAYMDLRSLTSEDSAVYYCARERFAYWGQGTLVTVSA VL: EIVLTQSPTTMAASPGEKITITCSVSSSIRSNYLHWYQQKPGFSPKLLIYRTSNLASGVPARFSGSGSGTSYSLTVATMEAEDVATYYCQQGSSIPLTFGAGTKLELKR	209
MB20-14 monoclonal antibody (antibody, V domains shown) VH: EVQLQESGPELVKPGASVKISCKASGYMFTDYYIKWVKQSHGKSLEWIGDINPNNGDTIYNQKFKGKATLTVDKSSNTAYMDLRILTSEDSAVYYCARERFAYWGQGTLVTVSA VL: EIVLTQSPTTMAASPGEKITITCSVSSSIRSNYLHWYQQKPGFSPKLLIYRTSNLASGVPARFSGSGSGTSYSLTVATMEAEDVATYYCQQGSSIPLTFGAGTKLELKR	166

Let us examine a further case.
Sample MB20-7 monoclonal antibody (antibody, V domains shown) VH: EVQLQESGPDLVKPGASVKISCKASGYMFTDYYMKWVKQSHGKSLEWIGDINPNNGDTTYNQKFEGKATLTVDKSSSTAYMELRSLTSEDSAVYYCARERFAYWGQGTLVTVSA VL: ELVLTQSPTTKAASPGEKITITCSVSSSIRSNYLHWYQQRPGFSPKLLIYRTSNLASGVPARFSGSGSGTSYSLTIGTMEAEDVATYYCQQGSSLPLTFGAGTKLELKR ; B cell reactivity (mean linear fluorescence intensity) observed: 525
